Origin of the recorded values: patent US9884043B2

Attribute: pIC50
- measured_on: HIS-tagged RORγ-LBD (Homo sapiens, UniProt P51449)
- Construct: HIS-tagged RORγ-LBD was recombinantly expressed in SF9 cells using a baculovirus expression system; made in house; host or cells: SF9 cells, baculovirus; crude lysate used
- Sequence (P51449 269-508 limits assumed): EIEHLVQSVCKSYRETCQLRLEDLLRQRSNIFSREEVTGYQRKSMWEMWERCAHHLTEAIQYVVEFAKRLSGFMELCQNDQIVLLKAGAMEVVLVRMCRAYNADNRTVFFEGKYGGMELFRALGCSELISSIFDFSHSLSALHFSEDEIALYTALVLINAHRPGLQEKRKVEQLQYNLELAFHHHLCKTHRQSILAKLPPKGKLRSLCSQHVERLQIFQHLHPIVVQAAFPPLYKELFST
- assay_details: TR-FRET assay (Protocol B), RORγ-LBD lysate / biotinylated SRC1-2 LXXLL peptide
- Format: biochemical
- assay_setup: unpurified RORγ-LBD lysate ~10 nM, SRC1-2 peptide 450 nM
- Text: Activation of RORgammaT activity can be measured using e.g. biochemical TR-FRET assay. In such an assay, interaction of cofactor-derived peptides with human RORgammaT-Ligand Binding Domain (LBD) can be measured. To identify novel antagonists of RORgammaT, an assay was developed which employs the interaction of RORgammaT with its co-activator peptide SRC1_2. […] The assay was run following three slightly different protocols, i.e. Protocol A, Protocol B, and Protocol C, which are described below. […]
pIC50: −log10 of the molar value.

molecule="O=C(O)c1cccc(-c2nn(C(=O)c3c(Cl)cccc3C(F)(F)F)c3cccc(F)c23)c1 [Example 24E]" reported="5.00 to 6.30"
molecule="Cc1cc(C(=O)O)ccc1-c1nn(C(=O)c2c(Cl)cccc2C(F)(F)F)c2cccnc12 [Example 24AF]" reported="> 7.30"
molecule="O=C(O)c1ccc(-c2nn(C(=O)c3c(Cl)cccc3C(F)(F)F)c3ccccc23)c(F)c1 [Example 24AR]" reported="> 7.30"

Now look at this one.
pIC50 measured on CN(C)C(=O)c1ccc2c(-c3ccc(C(=O)O)cc3F)nn(C(=O)c3c(Cl)cccc3C(F)(F)F)c2c1 [Example 25E] = > 7.30
